biological target: HLA-A*33:01; test: IEDB peptide-MHC binding, purified MHC/competitive/radioactivity; filed as Kd, often an IC50 or EC50 that approximates it; bounds were set here for any values at or beyond the usual limits of such assays; details: source organism: Vaccinia virus WR
observable: Kd

IVNEHDIKY	≥ 55.8 µM
AISSRVDRY	≥ 77.7 µM
VLGLGLSLK	≥ 26.8 µM
AIFTYTGGY	≥ 77.7 µM
RSIAMLKSK	≥ 77.7 µM
KAKWLTPFEK	≥ 70 µM
MVDVSMMSMY	≥ 30.6 µM
MLDTSEKYSK	≥ 70 µM

Kd in this record for "VSENTGMGMY" : ≥ 24.2 µM

The sequence listed as "SLFYTFAISY" shows Kd equal to ≥ 31.8 µM

Reported Kd ( "KSGGLSSGFY" ) = ≥ 70 µM

Memo: "VTSLAIKNY" , reported Kd: ≥ 77.7 µM

For reference, reported Kd for "FMDEIDHESY" stands at ≥ 43.7 µM

Form field Kd, entry "TLDTMDDMK" : ≥ 77.7 µM
